Data origin: patent US20210139581A1

Listed here: items and their measured Kd.
Target: T1, human CD33 (human, UniProt P20138 18-259, limits assumed)
T1 construct: Human CD33 immobilized on the BLI sensor tip or the BIAcore C1 chip; also called Siglec-3
T1 sequence (P20138 18-259 limits assumed): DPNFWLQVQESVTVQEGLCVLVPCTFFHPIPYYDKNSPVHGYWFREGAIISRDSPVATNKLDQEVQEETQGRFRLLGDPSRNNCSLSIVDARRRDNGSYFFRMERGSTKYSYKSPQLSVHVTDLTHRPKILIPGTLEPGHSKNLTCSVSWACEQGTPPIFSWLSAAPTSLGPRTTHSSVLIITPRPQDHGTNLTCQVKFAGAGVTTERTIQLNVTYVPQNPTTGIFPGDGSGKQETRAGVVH
Assay: BLI (ForteBio), Fab 100 nM on immobilized CD33
QUANTITY_NAME: Kd (nM)

>>> assay_result("AB-64.1.5 (antibody, V domains shown, Variant of AB-64.1) VH: QVQLVQSGAEVKKPGASVKISCKASGYTFTDYNLHWVRQAPGQGLEWIGFIYPSNGITGYAQKFQGRATLTVDQSTSTAYMELSSLRSEDTAVYYCARSDVDYFDYWGQGTLLTVSS VL: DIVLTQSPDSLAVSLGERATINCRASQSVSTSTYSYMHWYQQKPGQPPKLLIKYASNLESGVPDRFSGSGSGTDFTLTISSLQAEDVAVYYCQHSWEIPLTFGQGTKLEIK")
0.697
>>> assay_result("AB-64.1.10 (antibody, V domains shown, Variant of AB-64.1) VH: QVQLVQSGAEVKKPGASVKISCKASGYTFTDYNLHWVRQAPGQGLEWIGFIYPSNRITGYAQKFQGRATLTVDTSTSTAYMELSSLRSEDTAVYYCARSDVDYFDYWGQGTLLTVSS VL: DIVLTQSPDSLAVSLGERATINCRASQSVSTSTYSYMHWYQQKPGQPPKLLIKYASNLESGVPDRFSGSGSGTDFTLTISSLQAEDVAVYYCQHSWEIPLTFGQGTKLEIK")
1.45
